B1: CPEB3 Ribozyme (parent)
chain: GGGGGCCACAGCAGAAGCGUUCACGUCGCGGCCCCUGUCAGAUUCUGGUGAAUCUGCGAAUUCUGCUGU

- Variants of: B1
- assay protocol: self-cleavage, relative activity (ratio to wild type); higher = more cleavage; co-transcriptional
The threshold is inclusive: self-cleavage of exactly 0.6 counts as 1 (yes); values below receive 0 (no).

Exercise: Form field: self-cleavage at least 0.6? Entry: GGGGGCCACAGCAGAAGCGUUCACAUCGCGGCCCCUGUCAGAUUCUAGUGAAUCUGCGAAUUCUGCUGU [G25A G47A]
Key: 0 (no)

Exercise: Form field: self-cleavage at least 0.6? Entry: GGGGGCCACAGCAGAAGCGUUCACGUCGCUGCCCCUGUCAGAUUCUGGUGAAUCUGCGAAUUCUGCUGU [G30U]
Key: 0 (no)

Exercise: Form field: self-cleavage at least 0.6? Entry: GGGGGCCACAGCAGAAGAGUUCACGUCGCGGCCCCUGUCAGAUUCUGGUGAAUCUGCGAAUUUUGCUGU [C18A C63U]
Key: 0 (no)

Exercise: Form field: self-cleavage at least 0.6? Entry: GGGGGUCACAGCAGAAGCGUUCACGUCGCGGCCCCUGUCAGAUUCUGGUGAAUCUGCGAAUUCGGCUGU [C6U U64G]
Key: 1 (yes)

Exercise: Form field: self-cleavage at least 0.6? Entry: GGGGGCCACAGGAGAAGCGUUCACGUCGCGGCCCCUGUCAGAUUCUCGUGAAUCUGCGAAUUCUGCUGU [C12G G47C]
Key: 1 (yes)

Exercise: Form field: self-cleavage at least 0.6? Entry: GGGGGCCACAGCGUAAGCGUUCACGUCGCGGCCCCUGUCAGAUUCUGGUGAAUCUGCGAAUUCUGCUGU [A13G G14U]
Key: 0 (no)

Exercise: Form field: self-cleavage at least 0.6? Entry: GGGGGCCACAGCAUAAGCGUUCACGUCGCGGCCCCUGUCAGAUUCUGGUGAAUCUUCGAAUUCUGCUGU [G14U G56U]
Key: 0 (no)

Exercise: Form field: self-cleavage at least 0.6? Entry: GGGGGCCACACCAGAAGCGUUCACGUCGCGGCCCCUGUCAGAUUCUGGUGAAUCUGCGAGUUCUGCUGU [G11C A60G]
Key: 0 (no)

Exercise: Form field: self-cleavage at least 0.6? Entry: GGGGGCCACAGCAGAAGCGUUCACGUCGCGACCCCUGUCAGAUUCUGGUGAAUCUGCGAAUUUUGCUGU [G31A C63U]
Key: 1 (yes)

Exercise: Form field: self-cleavage at least 0.6? Entry: GGGGGCCACAGCAGAAGCGUUCACGUCGCGGCCCCUGUCAGAUUCUGGUGAAUCUGCAAUUUCUGCUGU [G58A A60U]
Key: 1 (yes)

Exercise: Form field: self-cleavage at least 0.6? Entry: GGGGGCCGCAGCAGAAGCGUUCACGUCGCGUCCCCUGUCAGAUUCUGGUGAAUCUGCGAAUUCUGCUGU [A8G G31U]
Key: 1 (yes)

Exercise: Form field: self-cleavage at least 0.6? Entry: GGGUGCCACAGCAGAAGCGUUCACGUCGCGGCCCCUGUCAGAUUCUGGUGAAGCUGCGAAUUCUGCUGU [G4U U53G]
Key: 0 (no)

Exercise: Form field: self-cleavage at least 0.6? Entry: GGGGGCCACAGCAGAAGCGUUCACGUCGCGGCCCCUGGCAGAUUCUGGUGAAUCUGCGAAUUCUGCCGU [U38G U67C]
Key: 0 (no)

Exercise: Form field: self-cleavage at least 0.6? Entry: GGGGGCCACAGCAGAAGCUUUCACGUCGCGGCCCCUGACAGAUUCUGGUGAAUCUGCGAAUUCUGCUGU [G19U U38A]
Key: 0 (no)

Exercise: Form field: self-cleavage at least 0.6? Entry: GGGGGCCACAGCAGAAGCGUUCACGUCGCGGCCCCUGUCAGCUUCUGGUGAAUCUGCGAAUUCUGCUGG [A42C U69G]
Key: 1 (yes)

Exercise: Form field: self-cleavage at least 0.6? Entry: GGGGGCUACAGCAGAAGCGUUCCCGUCGCGGCCCCUGUCAGAUUCUGGUGAAUCUGCGAAUUCUGCUGU [C7U A23C]
Key: 1 (yes)

Exercise: Form field: self-cleavage at least 0.6? Entry: GGGGGCCACAGCAGAAGCGUUCACGUCGCGGCGCCUGACAGAUUCUGGUGAAUCUGCGAAUUCUGCUGU [C33G U38A]
Key: 0 (no)

Exercise: Form field: self-cleavage at least 0.6? Entry: GGGGGCCACAGCAGAAGCGUUCACGUCGCGGCCCCUGUCAGAUUCUGGUGAAUCUGCUAAUUCAGCUGU [G58U U64A]
Key: 1 (yes)

Exercise: Form field: self-cleavage at least 0.6? Entry: GGGGGCCACAGCAGAAGUGUUCACGUCGCGGCCCCUGUCAGAGUCUGGUGAAUCUGCGAAUUCUGCUGU [C18U U43G]
Key: 0 (no)

Exercise: Form field: self-cleavage at least 0.6? Entry: GGGGGCCACAGCAGAAGCGUUCACGUCGCGGCCCCUGUCAGAUUCUUGUGAAUCUGCGAAUUCUGAUGU [G47U C66A]
Key: 1 (yes)

Exercise: Form field: self-cleavage at least 0.6? Entry: GGGGGCCACAGCAGAAGCGUUCACGUCGCGGCCCAUGUCAAAUUCUGGUGAAUCUGCGAAUUCUGCUGU [C35A G41A]
Key: 0 (no)

Exercise: Form field: self-cleavage at least 0.6? Entry: CGGGGCCUCAGCAGAAGCGUUCACGUCGCGGCCCCUGUCAGAUUCUGGUGAAUCUGCGAAUUCUGCUGU [G1C A8U]
Key: 0 (no)
